- tested target: F-actin (rabbit skeletal muscle actin, polymerized), P68135
- experiment: F-actin co-sedimentation assay
- assay conditions: chain shown with the change; 8 μM protein; percentage of theoretical total binding (100%); parent: est. 95; read off a plot
Cut-off 80 % bound on response: below means TRUE, at or above means FALSE.

binder	group
Myotilin Ig1Ig2^250–444 (Ig1Ig2 tandem), Q9UBF9 K411A (protein) PRFIQVPENMSIDEGRFCRMDFKVSGLPAPDVSWYLNGRTVQSDDLHKMIVSEKGLHSLIFEVVRASDAGAYACVAKNRAGEATFTVQLDVLAKEHKRAPMFIYKPQSKKVLEGDSVKLECQISAIPPPKLFWKRNNEMVQFNTDRISLYQDNTGRVTLLIADVNKKDAGWYTVSAVNEAGVTTCNTRLDVTARP	FALSE
Myotilin Ig1Ig2^250–444 (Ig1Ig2 tandem), Q9UBF9 K367A (protein) PRFIQVPENMSIDEGRFCRMDFKVSGLPAPDVSWYLNGRTVQSDDLHKMIVSEKGLHSLIFEVVRASDAGAYACVAKNRAGEATFTVQLDVLAKEHKRAPMFIYKPQSKKVLEGDSVALECQISAIPPPKLFWKRNNEMVQFNTDRISLYQDNTGRVTLLIKDVNKKDAGWYTVSAVNEAGVTTCNTRLDVTARP	FALSE
Myotilin Ig1Ig2^250–444 (Ig1Ig2 tandem), Q9UBF9 K354A; K359A (protein) PRFIQVPENMSIDEGRFCRMDFKVSGLPAPDVSWYLNGRTVQSDDLHKMIVSEKGLHSLIFEVVRASDAGAYACVAKNRAGEATFTVQLDVLAKEHKRAPMFIYAPQSKAVLEGDSVKLECQISAIPPPKLFWKRNNEMVQFNTDRISLYQDNTGRVTLLIKDVNKKDAGWYTVSAVNEAGVTTCNTRLDVTARP	TRUE
Myotilin Ig1Ig2^250–444 (Ig1Ig2 tandem), Q9UBF9 K359A (protein) PRFIQVPENMSIDEGRFCRMDFKVSGLPAPDVSWYLNGRTVQSDDLHKMIVSEKGLHSLIFEVVRASDAGAYACVAKNRAGEATFTVQLDVLAKEHKRAPMFIYKPQSKAVLEGDSVKLECQISAIPPPKLFWKRNNEMVQFNTDRISLYQDNTGRVTLLIKDVNKKDAGWYTVSAVNEAGVTTCNTRLDVTARP	TRUE
Myotilin Ig1Ig2^250–444 (Ig1Ig2 tandem), Q9UBF9 Q356A (protein) PRFIQVPENMSIDEGRFCRMDFKVSGLPAPDVSWYLNGRTVQSDDLHKMIVSEKGLHSLIFEVVRASDAGAYACVAKNRAGEATFTVQLDVLAKEHKRAPMFIYKPASKKVLEGDSVKLECQISAIPPPKLFWKRNNEMVQFNTDRISLYQDNTGRVTLLIKDVNKKDAGWYTVSAVNEAGVTTCNTRLDVTARP	FALSE
Myotilin Ig1Ig2^250–444 (Ig1Ig2 tandem), Q9UBF9 K354A (protein) PRFIQVPENMSIDEGRFCRMDFKVSGLPAPDVSWYLNGRTVQSDDLHKMIVSEKGLHSLIFEVVRASDAGAYACVAKNRAGEATFTVQLDVLAKEHKRAPMFIYAPQSKKVLEGDSVKLECQISAIPPPKLFWKRNNEMVQFNTDRISLYQDNTGRVTLLIKDVNKKDAGWYTVSAVNEAGVTTCNTRLDVTARP	TRUE
